Please go through the items and note down their T/C.
test system: BDF1 mice, P388 leukemia ip, median survival T/C; test: NCI In Vivo Anticancer Drug Screen. Data for tumor model P388 Leukemia (intraperitoneal) in B6D2F1 (BDF1) mice; settings: endpoint: median survival time; dose: 12.5 mg/kg/injection; schedule: Q04DX003 (ip); vehicle: saline; higher = longer survival
Toxic doses and inconclusive results are not listed.

The reported value for COc1cc2c3c(c1)C(O)CC[N+]3(C)CCC2 (stereo unspecified) in terms of T/C is 109 % of control

The reported value for `CCCCNC(C)(C)CO` in terms of T/C is 102 % of control

The reported value for O=C1OC(=O)C2C3C=CC(C4C=CC43)C12 (stereo unspecified) in terms of T/C is 101 % of control

The reported value for O=C1C=CC(=O)O1 (tested in a mixture with another compound) in terms of T/C is 104 % of control

The reported value for `SC1(S)CN2CCC1CC2` in terms of T/C is 105 % of control

The reported value for CC(O)CN1CC(C)N(CC(C)O)CC1C (stereo unspecified) in terms of T/C is 104 % of control

The reported value for CCCCCCC(C)NN (stereo unspecified) in terms of T/C is 98 % of control

The reported value for Cn1cnc([N+](=O)[O-])c1[Se]c1ncnc2c1c(C#N)cn2C1OC(CO)C(O)C1O (stereo unspecified) in terms of T/C is 119 % of control

The reported value for `Cc1c2c(ccc3ccccc32)c[n+]2ccccc12` in terms of T/C is 118 % of control

The reported value for `CC1(C)CN(C(C)(C)C)CC(C)(C)C(=O)C1=O` in terms of T/C is 90 % of control

The reported value for `C=CC(OC)OC` in terms of T/C is 100 % of control

The reported value for `CN1C2CCC1CN(Cc1ccccc1)C2` in terms of T/C is 88 % of control

The reported value for `C[C@@H]1C[C@H]2[C@@H]3CCC4=CC(=O)C=C[C@]4(C)[C@@]3(F)[C@@H](O)C[C@]2(C)[C@@]1(O)C(=O)CO` in terms of T/C is 109 % of control

The reported value for `O=C1NCCN1c1ccccn1` in terms of T/C is 100 % of control

The reported value for `Cc1cccnc1NC(=O)/C=C/C(=O)O` in terms of T/C is 100 % of control

The reported value for OCC1OC(n2ccc3c2ncn2nnnc32)C(O)C1O (stereo unspecified) in terms of T/C is 96 % of control

###

Please go through the items and note down their T/C.
system: BDF1 mice, P388 leukemia ip, median survival T/C; assay: NCI In Vivo Anticancer Drug Screen. Data for tumor model P388 Leukemia (intraperitoneal) in B6D2F1 (BDF1) mice; details: endpoint: median survival time; dose: 150.0 mg/kg/injection; schedule: Q01DX009 (ip); vehicle: saline with Tween-80; higher = longer survival
Toxic doses and inconclusive results are not listed.

The reported value for CSc1ccc(NC(=O)C(O)C(O)C(O)C(O)CO)cc1 (configuration not stated) in terms of T/C is 100 % of control

The reported value for `CC(=O)Oc1ccc(/C=N/NC(N)=S)nc1` in terms of T/C is 90 % of control

The reported value for `O=C(O)C(/C=N\Nc1ccccc1)=N\Nc1ccccc1` in terms of T/C is 118 % of control

The reported value for NNC(=O)C1CCC(=O)O1 (configuration not stated) in terms of T/C is 91 % of control

The reported value for `CC=C(/C(=C/C)c1ccc(O)cc1)c1ccc(O)cc1` in terms of T/C is 118 % of control

The reported value for `CC(=O)C/C(C)=N/NC(=O)c1ccncc1` in terms of T/C is 90 % of control

The reported value for `O=C(/C=N/O)Nc1cc(Cl)c(Cl)cc1Cl` in terms of T/C is 118 % of control
